Data credit: patent US20230027075A1

biological target: human-CD73 (Trp27-Lys547, His-tag) (Homo sapiens, UniProt P21589); construct: human-CD73 (Trp27-Lys547, His-tag); His-tag; assay: CD73 biochemical assay (colorimetric, Malachite Green phosphate detection); settings: 20 μM compound; 2 nM CD73, 50 μM AMP; read-out: % inhibition at 20 μM (Percent inhibition data in CD73)
Sequence (P21589 27-547): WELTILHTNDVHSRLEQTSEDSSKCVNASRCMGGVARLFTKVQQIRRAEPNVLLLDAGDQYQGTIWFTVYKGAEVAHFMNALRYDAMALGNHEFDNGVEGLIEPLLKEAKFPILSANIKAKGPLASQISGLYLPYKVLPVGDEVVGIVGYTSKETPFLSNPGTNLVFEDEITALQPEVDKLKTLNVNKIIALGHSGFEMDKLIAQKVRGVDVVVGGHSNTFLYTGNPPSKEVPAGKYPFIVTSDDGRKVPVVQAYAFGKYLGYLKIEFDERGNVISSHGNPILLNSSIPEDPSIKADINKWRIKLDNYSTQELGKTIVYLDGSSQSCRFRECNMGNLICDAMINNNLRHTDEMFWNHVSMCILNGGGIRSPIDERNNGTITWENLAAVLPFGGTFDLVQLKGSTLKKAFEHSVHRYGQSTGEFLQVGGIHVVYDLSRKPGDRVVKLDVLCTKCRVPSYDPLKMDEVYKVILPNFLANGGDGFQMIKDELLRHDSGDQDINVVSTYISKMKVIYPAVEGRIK
Measured inhibition at 20 µM of individual entries
Just the number plus its unit, please.

Q: What does the data say about its inhibition at 20 µM? Entry: NC(=O)c1cc(S(=O)(=O)Nc2ccc(CCCNc3nc(N)n4nc(-c5ccco5)nc4n3)c(F)c2)cc(Cl)c1O
Ans: 94%

Q: Consider the compound shown here: NC(=O)c1cc(S(=O)(=O)Nc2ccc(CNc3nc(N)n4nc(-c5ccco5)nc4n3)cc2)cc(Cl)c1O What is its recorded inhibition at 20 µM?
Ans: 97%

Q: Look up inhibition at 20 µM for this compound: NC(=O)c1cc(S(=O)(=O)Nc2ccc(CCCOc3cc(N)n4nc(-c5ccco5)nc4n3)cc2)cc(Cl)c1O
Ans: 98%
